Ref: BindingDB's records for doi:10.1021/cc020096o

Measured IC50 (Dipeptidyl peptidase 2 (Homo sapiens))

MOLECULE: N[C@@H](CO)C(=O)N1CCCC1P(=O)(Oc1ccccc1)Oc1ccccc1 (stereo partly specified)
IC50: > 1000 µM

MOLECULE: C[C@H](N)C(=O)N1CCCC1P(=O)(Oc1ccccc1)Oc1ccccc1 (stereo partly specified)
IC50: > 1000 µM

MOLECULE: CCCC(NC(=O)[C@@H](N)CCCCN)P(=O)(Oc1ccccc1)Oc1ccccc1 (stereo partly specified)
IC50: > 1000 µM

MOLECULE: N[C@@H](Cc1ccccc1)C(=O)N1CCCC1P(=O)(Oc1ccccc1)Oc1ccccc1 (stereo partly specified)
IC50: > 1000 µM

MOLECULE: CC(C)C[C@H](N)C(=O)NC(C)P(=O)(Oc1ccccc1)Oc1ccccc1 (stereo partly specified)
IC50: > 500 µM

MOLECULE: CCC(CC)C(NC(=O)[C@@H](N)C(C)CC)P(=O)(Oc1ccccc1)Oc1ccccc1 (stereo partly specified)
IC50: > 1000 µM

MOLECULE: CC(C)[C@H](N)C(=O)NC(C)P(=O)(Oc1ccccc1)Oc1ccccc1 (stereo partly specified)
IC50: < 1000 µM

MOLECULE: CC(NC(=O)CN)P(=O)(Oc1ccccc1)Oc1ccccc1 (stereo unspecified)
IC50: > 1000 µM

MOLECULE: CC(NC(=O)[C@@H](N)Cc1cnc[nH]1)P(=O)(Oc1ccccc1)Oc1ccccc1 (stereo partly specified)
IC50: > 500 µM

MOLECULE: CC(NC(=O)[C@@H](N)Cc1ccc(O)cc1)P(=O)(Oc1ccccc1)Oc1ccccc1 (stereo partly specified)
IC50: > 500 µM

MOLECULE: CC(NC(=O)[C@@H](N)Cc1ccccc1)P(=O)(Oc1ccccc1)Oc1ccccc1 (stereo partly specified)
IC50: < 1000 µM

MOLECULE: CC(NC(=O)[C@@H](N)CO)P(=O)(Oc1ccccc1)Oc1ccccc1 (stereo partly specified)
IC50: > 1000 µM

MOLECULE: NCCCC[C@H](N)C(=O)N1CCCC1P(=O)(Oc1ccccc1)Oc1ccccc1 (stereo partly specified)
IC50: > 1000 µM

MOLECULE: CC(NC(=O)[C@@H](N)CCCCN)P(=O)(Oc1ccccc1)Oc1ccccc1 (stereo partly specified)
IC50: > 1000 µM

MOLECULE: NC(=O)C[C@H](N)C(=O)N1CCCC1P(=O)(Oc1ccccc1)Oc1ccccc1 (stereo partly specified)
IC50: > 125 µM

MOLECULE: CC(NC(=O)[C@H](C)N)P(=O)(Oc1ccccc1)Oc1ccccc1 (stereo partly specified)
IC50: < 1000 µM
